Value source: patent US20260042731A1

tested on: Abutilon theophrasti (ABUTH), velvetleaf; assay: Postemergence herbicide evaluation, growth of Abutilon theophrasti (ABUTH); type: in vivo; details: Abutilon theophrasti, post-emergence, 336 h, 280 g ae/ha, 14 DAA, percent reduction in plant size relative to untreated control; read-out: AVE. ABUTH
Criterion: pest or weed control at 280 g/ha strictly under 60%. Met: Fulfilled. Not met: Not fulfilled.

>>> df
                                 smiles_code                               measured_on          class
 0   N/C(Cc1ccccc1)=N\OC(=O)COc1ccc(Cl)cc1Cl  Abutilon theophrasti (ABUTH), velvetleaf  Not fulfilled
 1  CCOC(=O)C(=NOC(=O)COc1ccc(Cl)cc1Cl)C(=O)OCC  Abutilon theophrasti (ABUTH), velvetleaf  Not fulfilled
 2   CN(OC(=O)COc1ccc(Cl)cc1Cl)C(=O)c1ccccc1  Abutilon theophrasti (ABUTH), velvetleaf  Not fulfilled
 3          O=C(COc1ccc(Cl)cc1Cl)NOCc1ccccc1  Abutilon theophrasti (ABUTH), velvetleaf  Not fulfilled
 4     N/C(=N\OC(=O)COc1ccc(Cl)cc1Cl)c1ccco1  Abutilon theophrasti (ABUTH), velvetleaf      Fulfilled
 5  O=C(COc1ccc(Cl)cc1Cl)O/N=C/c1ccc(/C=N/OC(=O)COc2ccc(Cl)cc2Cl)cc1  Abutilon theophrasti (ABUTH), velvetleaf      Fulfilled
 6  O=C(COc1ccc(Cl)cc1Cl)ON(Cc1ccccc1)Cc1ccccc1  Abutilon theophrasti (ABUTH), velvetleaf      Fulfilled
 7     O=C(Cc1ccccc1)NOC(=O)COc1ccc(Cl)cc1Cl  Abutilon theophrasti (ABUTH), velvetleaf  Not fulfilled
 8           C/C(N)=N/OC(=O)COc1ccc(Cl)cc1Cl  Abutilon theophrasti (ABUTH), velvetleaf  Not fulfilled
 9          CS/C(C)=N\OC(=O)COc1ccc(Cl)cc1Cl  Abutilon theophrasti (ABUTH), velvetleaf  Not fulfilled
10        CCO/C(CC)=N\OC(=O)COc1ccc(Cl)cc1Cl  Abutilon theophrasti (ABUTH), velvetleaf  Not fulfilled
11  Cn1c(O)c(C(=O)COc2ccc(Cl)cc2Cl)c2ccccc21  Abutilon theophrasti (ABUTH), velvetleaf  Not fulfilled
12      CC(=O)/C(C)=N/OC(=O)COc1ccc(Cl)cc1Cl  Abutilon theophrasti (ABUTH), velvetleaf  Not fulfilled
13  N/C(=N\OC(=O)COc1ccc(Cl)cc1Cl)c1ccc(/C(N)=N/OC(=O)COc2ccc(Cl)cc2Cl)cc1  Abutilon theophrasti (ABUTH), velvetleaf      Fulfilled
14            O=C(COc1ccc(Cl)cc1Cl)ON1CCCCC1  Abutilon theophrasti (ABUTH), velvetleaf  Not fulfilled
15       Cc1cc(OC(=O)COc2ccc(Cl)cc2Cl)n(C)n1  Abutilon theophrasti (ABUTH), velvetleaf  Not fulfilled
16  Cc1ccc(S(=O)(=O)NC(=O)COc2ccc(Cl)cc2Cl)cc1  Abutilon theophrasti (ABUTH), velvetleaf      Fulfilled
17  C/C(C/C(C)=N/OC(=O)COc1ccc(Cl)cc1Cl)=N\OC(=O)COc1ccc(Cl)cc1Cl  Abutilon theophrasti (ABUTH), velvetleaf  Not fulfilled
18      O=C(COc1ccc(Cl)cc1Cl)NNC(=O)c1ccccc1  Abutilon theophrasti (ABUTH), velvetleaf  Not fulfilled
